This collection of values is drawn from PubChem BioAssay AID179.

Please respond with reported IC50 for every item in the list.
- Tested on: CEM cells HIV-1 protection, formazan growth assay
- assay protocol: NCI AIDS Antiviral Assay
- applied conditions: measured here: growth of uninfected CEM cells

Exercise: Requested read-out: IC50. Entry: CC(C)(C)OC(=O)N1N=NC2C1C1CC(OCc3ccccc3)(OCc3ccccc3)C2O1 (stereo unspecified)
Key: > 15.8 µM

Exercise: Same thing, different molecule: C(/C=C/Nc1ccc(-c2ccccc2)cc1)=Nc1ccc(-c2ccccc2)cc1
Key: > 200 µM

Exercise: // next record CCCCN(CCCC)c1cc(=O)nc2ccccn12
Key: > 200 µM

Exercise: Note, next up: CC1=CC=NN2C(=O)[C@H](C)C2C1 (stereo partly specified)
Key: > 1510 µM

Exercise: Next: O=C1CS/C(=N/N=C/c2nc3ccccc3c(=O)n2-c2ccc(Cl)cc2)N1c1ccccc1
Key: > 38 µM

Exercise: Now consider O=[N+]([O-])c1cc([As](=O)(O)O)ccc1O .
Key: > 200 µM

Exercise: Also, N#CC(C(=O)CCC(=O)Nc1ccc(Cl)cc1)c1ccccc1Cl (stereo unspecified) please.
Key: > 186 µM

Exercise: Same read-out for Fc1ccc(C=NC23CC4CC(CC(C4)C2)C3)cc1 ?
Key: > 28.2 µM

Exercise: Repeat with O=C1C(c2[nH]c3ccc(S(=O)(=O)O)cc3c2O)=Nc2ccc(S(=O)(=O)O)cc21
Key: > 200 µM

Exercise: Now the molecule CC(=O)Nc1cc(N=Nc2ccc(NC(=O)c3ccc(N)cc3)cc2C)c(S(=O)(=O)O)cc1N=Nc1ccc(N=Nc2ccc(S(=O)(=O)O)cc2)cc1
Key: > 100 µM

Exercise: Same read-out for O=C(Cc1ccccc1)Nn1c(-c2ccccc2)nc2ccccc2c1=O ?
Key: > 200 µM

----------
- Test system: CEM cells HIV-1 protection, formazan growth assay
- assay protocol: NCI AIDS Antiviral Assay;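 active = compounds giving half or more protection of infected cells from virus-caused growth loss, again on retest; inactive = the rest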
# output must be one of yes (1) = active, no (0) = inactive

Exercise: Per the assay record, what outcome was assigned to Cc1cn2c(=O)c3ccccc3nc2s1 ?
Key: no (0)

Exercise: And then CO/C(=N\Nc1ccc([N+](=O)[O-])cc1)P(=O)(OC(C)C)OC(C)C , what is it?
Key: no (0)

Exercise: Try C[CH2][Sn]([CH2]C)([O]C(=O)c1ccc(F)cc1)[O]C(=O)c1ccc(F)cc1 next.
Key: no (0)

Exercise: Can you check CC1=C2c3ccccc3N(C(=O)/C=C/C(=O)O)[C@H]2[C@H]2C(=O)OC(=O)[C@H]2C1 next?
Key: no (0)

Exercise: Now this one: CN(C)c1nc(N)c(N=O)c(=O)[nH]1
Key: no (0)

Exercise: Queued: CC1=C2[C@H](c3ccccc3)C3C=CC2(c2ccccc23)N(C(=O)C(c2ccccc2)c2ccccc2)C1=O (some centres not stated)
Key: no (0)

Exercise: Now consider O=C(/N=C/c1c(O)c2ccccc2oc1=O)Oc1ccccc1 and answer again.
Key: no (0)

Exercise: Here is the next compound: Cc1ccc2c(c1)NC(=O)C(N=[N+]=[N-])(c1ccccc1)C2=O (configuration not stated)
Key: no (0)

Exercise: Can you check O=c1[nH]c(=O)n(C2CC(O)C(CO)O2)cc1OCCCc1ccccc1 (configuration not stated) next?
Key: no (0)

Exercise: Now consider CN(C)Cc1cc(C(=O)/C=C/c2ccc(Cl)c(Cl)c2)cc(CN(C)C)c1O .
Key: no (0)

Exercise: What do you get for CCOC(=O)c1ccc(CSc2ccc(Cl)cc2)cc1 ?
Key: no (0)

Exercise: Now consider CC(=O)OC1CN2CC[C@H](O)C2C(O)[C@@H]1O (some centres not stated) .
Key: yes (1)

Exercise: Subsequent entry: CN(C)c1ccc(C(=S)c2ccc(N(C)C)cc2)cc1
Key: no (0)

Exercise: Query C=C1C(=O)OC2CC(C)C3(O)C=C(C(C)=O)C4(OC3CC12)C(=O)OC1CC(C)C(/C=C\C(C)=O)=CCC14 (configuration not stated) next
Key: no (0)

Exercise: Cc1cc(C23OC4COC(C)(C)OC4C2OC(C)(C)O3)ncn1 (configuration not stated) , same question.
Key: no (0)

Exercise: Could you do the same for O=C1NCc2c1[nH]c(=O)[nH]c2=O , please?
Key: no (0)

Exercise: And what about the compound CC(=O)Nc1c(C#N)c2n(c1C(=O)Nc1ccc(S(N)(=O)=O)cc1)CCC2 ?
Key: no (0)

Exercise: # iterate: O=C(Cc1ccccc1)c1ccc2[nH]c(=O)oc2c1
Key: no (0)

Exercise: Note, next up: N#Cc1c2c(c(N=P(c3ccccc3)(c3ccccc3)c3ccccc3)n3c1nc1ccccc13)CCCC2
Key: no (0)

Exercise: N#Cc1nsnc1-c1nc(-c2nsnc2C#N)nc(-c2nsnc2C#N)n1 , same question.
Key: no (0)

Exercise: What about CCCCCCCC(=O)c1ccc(O)c(C(=O)Nc2cccc(C(F)(F)F)c2)c1 ?
Key: no (0)

Exercise: Try this compound next: CS(=O)(=O)OCCCSCCSCCCOS(C)(=O)=O
Key: no (0)

Exercise: Also, CC(C)NCCCNc1c2ccccc2nc2cccc([N+](=O)[O-])c12 please.
Key: no (0)

Exercise: Continue with N#CC1(O)CCCCCCCCCCC1
Key: no (0)

Exercise: Same again, this time with COc1ccc(C2(OC)Oc3ccccc3C(=O)C2(O)OC)cc1OC (configuration not stated)
Key: no (0)

Exercise: Same question for CC(=O)C1=CC=C/C1=N\Nc1ccccc1 please.
Key: no (0)

Exercise: What do you get for N#Cc1c(-c2ccccc2)ssc1=S ?
Key: no (0)

Exercise: Param item: O=C1c2ccccc2C(=O)N1/N=C\c1ccc([N+](=O)[O-])cc1
Key: no (0)

Exercise: Same question, CCOc1ccc2c(ccc(/C=C\c3cc(C)c4cccnc4c3O)[n+]2C)c1 this time
Key: no (0)

Exercise: Now consider C=CCc1cc2c(C)cc(=O)oc2c(C)c1OC(C)=O and answer again.
Key: no (0)

Exercise: Next entry: O=C(c1nc2ccccc2[nH]c1=O)C(O)c1ccccc1 (configuration not stated)
Key: no (0)

Exercise: Next entry: O=C1OC(=O)C2=C1C1c3ccccc3C2c2ccccc21
Key: no (0)

Exercise: Would you mind doing CN(C)CC1CCCCCCCCCCCCC(CN(C)C)C1=O (configuration not stated) as well?
Key: no (0)

Exercise: Input COc1ccc(/C=C2/C(=O)C(c3ccccc3)N(c3ccccc3)C2=O)cc1OC (configuration not stated)
Key: no (0)

Exercise: Then this compound: C[n+]1ccc(Nc2ccc(O)cc2)c2ccc(Cl)cc21
Key: no (0)

Exercise: Also need N#CCCn1c(CCC(=O)Nc2ccc(Cl)cc2Cl)n[nH]c1=S , thanks.
Key: no (0)

Exercise: Again, but for COc1ccc(Cc2c(N)[nH]c(=O)n(C)c2=O)cc1
Key: no (0)
